Listing of recorded inhibition by entry.
# SUBJECT_OF_TEST: Tyrosine-protein kinase Mer (Homo sapiens)
# CONDITION_INFO: at 0.1 µM
PROPERTY: inhibition (%)

>  <STRUCTURE_AS_SMILES>
CCS(=O)(=O)c1ccc(OC)c(Nc2ncc(-c3cccc(-c4ccccc4F)c3)o2)c1

>  <SUBJECT_OF_TEST>
Tyrosine-protein kinase Mer (Homo sapiens)

>  <NUMERIC_READOUT>
0.82

$$$$
>  <STRUCTURE_AS_SMILES>
CN(C)CCCNc1nccc(-c2c(-c3ccc(F)cc3)nn3cc(C(F)(F)F)ccc23)n1

>  <SUBJECT_OF_TEST>
Tyrosine-protein kinase Mer (Homo sapiens)

>  <NUMERIC_READOUT>
1.56

$$$$
>  <STRUCTURE_AS_SMILES>
Cc1ccc(C(=O)NC(C)C)cc1-c1ccc(C(=O)NCC2CC2)cc1

>  <SUBJECT_OF_TEST>
Tyrosine-protein kinase Mer (Homo sapiens)

>  <NUMERIC_READOUT>
-1.23

$$$$
>  <STRUCTURE_AS_SMILES>
c1ccc(-c2n[nH]cc2-c2ccnc(-c3ccc(OCCN4CCOCC4)cc3)c2)nc1

>  <SUBJECT_OF_TEST>
Tyrosine-protein kinase Mer (Homo sapiens)

>  <NUMERIC_READOUT>
5.12

$$$$
>  <STRUCTURE_AS_SMILES>
O=C1NC(=O)C(c2cccc(Cl)c2)=C1Nc1ccc(Cl)c(C(=O)O)c1

>  <SUBJECT_OF_TEST>
Tyrosine-protein kinase Mer (Homo sapiens)

>  <NUMERIC_READOUT>
1.12

$$$$
>  <STRUCTURE_AS_SMILES>
NC(=O)c1cc(-c2ccc(F)cc2)cc(-c2ccncc2)c1N

>  <SUBJECT_OF_TEST>
Tyrosine-protein kinase Mer (Homo sapiens)

>  <NUMERIC_READOUT>
1.16

$$$$
>  <STRUCTURE_AS_SMILES>
COc1cc2ncn(-c3cc(OCc4ccccc4C(F)(F)F)c(C(C)=O)s3)c2cc1OC

>  <SUBJECT_OF_TEST>
Tyrosine-protein kinase Mer (Homo sapiens);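 also: reported value is a mean inhibition of MER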

>  <NUMERIC_READOUT>
-0.14

$$$$
